Attribution: paper PMC6897958

Target: CysLT2R W51^1.45V (Homo sapiens, UniProt Q9NS75, W51V)
Assay: IP1 production assay, HEK293 transfected with CysLT2R mutant
Experimental Endpoint: pIC50
The scale used: pIC50 is minus the common logarithm of the concentration in molar units.

Q: Any idea what its pIC50 is? The compound is O=C(O)CCCN1CC(C(=O)O)Oc2c(NC(=O)c3ccc(OCCCCOc4cccc(F)c4F)cc3F)cccc21 (centres unmarked) [cpd 11c]
Result: 6.80

Q: // pIC50 lookup, key: O=C(O)CCCN1C[C@@H](C(=O)O)Oc2c(NC(=O)c3ccc(OCCCCc4cc(F)ccc4Cl)cc3)cccc21 [cpd 11a]
Result: 7.33

---

Molecular target: CysLT2R K194 ^ECL2R (Homo sapiens, UniProt Q9NS75, K194R)
Test: IP1 production assay, HEK293 transfected with CysLT2R mutant
What IC50 was measured for each of the following?
Number only, in nM; omit the unit.

Q: Quick one: IC50 of O=C(O)CCCN1C[C@@H](C(=O)O)Oc2c(NC(=O)c3ccc(OCCCCc4cc(F)ccc4Cl)cc3)cccc21 [cpd 11a] ?
Result: 60

Q: Reported IC50 for O=C(O)CCCN1CC(C(=O)O)Oc2c(NC(=O)c3ccc(OCCCCOc4cccc(F)c4F)cc3F)cccc21 (centres unmarked) [cpd 11c] : what is it?
Result: 40

---

Target: CysLT2R E310^8.48A (Homo sapiens, UniProt Q9NS75, E310A)
Construct: expressed in transfected cells; host or cells: HEK293 (ATCC CRL-1573)
Sequence (Q9NS75 1-346 E310A): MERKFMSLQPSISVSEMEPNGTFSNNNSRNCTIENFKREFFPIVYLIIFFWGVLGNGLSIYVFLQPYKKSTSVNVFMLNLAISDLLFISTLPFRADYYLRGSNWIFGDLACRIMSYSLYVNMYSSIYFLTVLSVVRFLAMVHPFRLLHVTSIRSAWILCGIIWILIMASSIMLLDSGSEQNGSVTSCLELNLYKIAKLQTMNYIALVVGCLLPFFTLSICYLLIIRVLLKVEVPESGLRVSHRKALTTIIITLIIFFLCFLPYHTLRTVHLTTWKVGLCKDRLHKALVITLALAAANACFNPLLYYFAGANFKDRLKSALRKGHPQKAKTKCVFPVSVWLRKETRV
Test: IP1 production assay, HEK293 transfected with CysLT2R mutant
Type: cell-based
Experimental Endpoint: IC50 (nM)
# value in nM; strip the unit string

Q: # returns recorded IC50 (system: CysLT2R E310^8.48A (Homo sapiens, UniProt Q9NS75, E310A)) for O=C(O)CCCN1CC(C(=O)O)Oc2c(NC(=O)c3ccc(OCCCCOc4cccc(F)c4F)cc3F)cccc21 (centres unmarked) [cpd 11c]
Result: 18

Q: Hi! What's the reported IC50 for O=C(O)CCCN1C[C@@H](C(=O)O)Oc2c(NC(=O)c3ccc(OCCCCc4cc(F)ccc4Cl)cc3)cccc21 [cpd 11a] on CysLT2R E310^8.48A (Homo sapiens, UniProt Q9NS75, E310A)?
Result: 8

---

Molecular target: CysLT2R K194 ^ECL2N (Homo sapiens, UniProt Q9NS75, K194N)
Sequence (Q9NS75 1-346 K194N): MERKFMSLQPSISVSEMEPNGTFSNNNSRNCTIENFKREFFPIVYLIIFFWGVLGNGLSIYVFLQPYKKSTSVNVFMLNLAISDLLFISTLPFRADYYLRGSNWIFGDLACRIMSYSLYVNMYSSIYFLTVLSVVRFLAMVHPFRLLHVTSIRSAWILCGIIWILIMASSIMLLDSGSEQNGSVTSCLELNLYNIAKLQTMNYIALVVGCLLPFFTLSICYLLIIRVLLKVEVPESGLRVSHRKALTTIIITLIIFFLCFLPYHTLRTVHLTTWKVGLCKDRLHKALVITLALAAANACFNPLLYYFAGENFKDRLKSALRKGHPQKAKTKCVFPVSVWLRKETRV
Assay: IP1 production assay, HEK293 transfected with CysLT2R mutant
Experimental Endpoint: pIC50
Just so you know, pIC50 here is -log10 of the concentration in molar units; reply with that number alone.

Q: Give the reported pIC50 for O=C(O)CCCN1CC(C(=O)O)Oc2c(NC(=O)c3ccc(OCCCCOc4cccc(F)c4F)cc3F)cccc21 (centres unmarked) [cpd 11c] (system: CysLT2R K194 ^ECL2N (Homo sapiens, UniProt Q9NS75, K194N)).
Result: 7.49

Q: Give pIC50 (CysLT2R K194 ^ECL2N (Homo sapiens, UniProt Q9NS75, K194N)) of the following compound: O=C(O)CCCN1C[C@@H](C(=O)O)Oc2c(NC(=O)c3ccc(OCCCCc4cc(F)ccc4Cl)cc3)cccc21 [cpd 11a]
Result: 8.10

---

Biological target: CysLT2R R267^6.55K (Homo sapiens, UniProt Q9NS75, R267K)
Assay: IP1 production assay, HEK293 transfected with CysLT2R mutant
Please provide measured pIC50 for the entries that follow.
pIC50 (log units): -log10 of the concentration in mol/L.

Q: Data request, read-out pIC50, for O=C(O)CCCN1CC(C(=O)O)Oc2c(NC(=O)c3ccc(OCCCCOc4cccc(F)c4F)cc3F)cccc21 (centres unmarked) [cpd 11c]
Result: 7.00

Q: Dear colleague, I am looking for the recorded pIC50 of the following molecule: O=C(O)CCCN1C[C@@H](C(=O)O)Oc2c(NC(=O)c3ccc(OCCCCc4cc(F)ccc4Cl)cc3)cccc21 [cpd 11a]
Result: 7.66

---

Please provide measured IC50 for the entries that follow.
Molecular target: CysLT2R F260^6.48W (Homo sapiens, UniProt Q9NS75, F260W)
Test: IP1 production assay, HEK293 transfected with CysLT2R mutant
State the answer as a number, implicitly in nM.

Q: # value lookup — system CysLT2R F260^6.48W (Homo sapiens, UniProt Q9NS75, F260W), readout IC50, item O=C(O)CCCN1C[C@@H](C(=O)O)Oc2c(NC(=O)c3ccc(OCCCCc4cc(F)ccc4Cl)cc3)cccc21 [cpd 11a]
Result: 40

Q: Under CysLT2R F260^6.48W (Homo sapiens, UniProt Q9NS75, F260W): IC50 value of O=C(O)CCCN1CC(C(=O)O)Oc2c(NC(=O)c3ccc(OCCCCOc4cccc(F)c4F)cc3F)cccc21 (centres unmarked) [cpd 11c] ?
Result: 330

---

Molecular target: CysLT2R I126^3.40V (Homo sapiens, UniProt Q9NS75, I126V)
Assay: IP1 production assay, HEK293 transfected with CysLT2R mutant
Exercise: state measured IC50 for each of the compounds provided.
Respond numerically; units are nM and should not be typed.

Q: Which IC50 value belongs to O=C(O)CCCN1CC(C(=O)O)Oc2c(NC(=O)c3ccc(OCCCCOc4cccc(F)c4F)cc3F)cccc21 (centres unmarked) [cpd 11c] ?
Result: 14

Q: // query IC50 value for entry O=C(O)CCCN1C[C@@H](C(=O)O)Oc2c(NC(=O)c3ccc(OCCCCc4cc(F)ccc4Cl)cc3)cccc21 [cpd 11a]
Result: 20

---

Target: CysLT2R S169^4.56A (Homo sapiens, UniProt Q9NS75, S169A)
Sequence (Q9NS75 1-346 S169A): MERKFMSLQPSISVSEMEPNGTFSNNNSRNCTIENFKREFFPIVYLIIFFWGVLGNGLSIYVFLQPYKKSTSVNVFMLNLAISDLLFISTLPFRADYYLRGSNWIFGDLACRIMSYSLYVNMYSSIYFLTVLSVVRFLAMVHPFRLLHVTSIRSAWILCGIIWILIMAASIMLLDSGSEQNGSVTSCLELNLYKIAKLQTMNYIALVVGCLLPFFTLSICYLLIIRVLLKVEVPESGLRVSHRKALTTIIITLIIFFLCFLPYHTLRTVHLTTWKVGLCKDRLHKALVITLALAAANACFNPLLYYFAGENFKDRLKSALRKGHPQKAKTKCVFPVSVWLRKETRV
Test: IP1 production assay, HEK293 transfected with CysLT2R mutant
Record form. Attribute: IC50. Fill in for each entry.
Report as: number unit

Q: Data request, read-out IC50, for O=C(O)CCCN1CC(C(=O)O)Oc2c(NC(=O)c3ccc(OCCCCOc4cccc(F)c4F)cc3F)cccc21 (centres unmarked) [cpd 11c]
Result: 16 nM

Q: Bench note: what IC50 did O=C(O)CCCN1C[C@@H](C(=O)O)Oc2c(NC(=O)c3ccc(OCCCCc4cc(F)ccc4Cl)cc3)cccc21 [cpd 11a] show?
Result: 10 nM

---

Target: CysLT2R Y119^3.33F (Homo sapiens, UniProt Q9NS75, Y119F)
Construct: expressed in transfected cells; host or cells: HEK293 (ATCC CRL-1573)
Assay: IP1 production assay, HEK293 transfected with CysLT2R mutant
Assay type: cell-based
Excerpt: For CysLT2R functional assays, the initial CysLT2R wild-type gene with an N-terminal 3 × HA tag cloned into pcDNA3.1+ (Invitrogen) at EcoRI(5′) and XhoI(3′) was purchased from cDNA.org. All further gene modifications (point mutations, truncations, or partner protein fusion) were introduced by overlapping PCR. Sequences of all primers used in this work are listed in Supplementary Table 4. The Cisbio IP-One kit was used according to the manufacturer’s instructions. […]
Consider the following molecules; for each one, report its IC50.
Report the figure along with its unit, number first.

Q: Need IC50, item O=C(O)CCCN1C[C@@H](C(=O)O)Oc2c(NC(=O)c3ccc(OCCCCc4cc(F)ccc4Cl)cc3)cccc21 [cpd 11a]
Result: 0.1 µM

Q: Entry O=C(O)CCCN1CC(C(=O)O)Oc2c(NC(=O)c3ccc(OCCCCOc4cccc(F)c4F)cc3F)cccc21 (centres unmarked) [cpd 11c] has what IC50?
Result: 0.26 µM
